- testMethodNotes: chemical genetic growth profiling, strain panel (AID 1159580);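 further: tested at 20 µM; growth read once vehicle control cultures reached saturation at 30 °C; 1 = growth at the plate median or of vehicle wells; lower values mean less growth of the strain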
- conditionSet: S. cerevisiae deletion strains, growth OD, locus YJL134W, strain LCB3, stronger effect = lower value
Out of some 5,500 compounds screened, about 2,000 (36%) were called active. Roughly 18% stayed inconclusive and do not appear here. The list shows a part of the results.

- compound: "O=c1c(-c2ccc(O)cc2)coc2cc(O)cc(O)c12"
  normalized growth: 1.03
- compound: "CC(=O)Oc1cc(OC(C)=O)c2c(=O)c(-c3ccccc3)coc2c1"
  normalized growth: 1.01
- compound: "CCCCCCCCCc1ccc(O)cc1"
  normalized growth: 0.308
- compound: "CCCCCCCCCCCCCCCC[n+]1ccccc1"
  normalized growth: 0.047
- compound: "COc1ccc(-c2coc3cc(O)cc(O)c3c2=O)cc1"
  normalized growth: 0.7
- compound: "Cc1cc(=O)c2c(O)c3c(cc2o1)OC(C)(C)CC3"
  normalized growth: 1
- compound: "O=c1c(-c2cc(O)c(O)c(O)c2)coc2cc(O)c(O)c(O)c12"
  normalized growth: 0.943
- compound: "CCCCC1C(=O)N(c2ccccc2)N(c2ccccc2)C1=O"
  normalized growth: 0.977
- compound: "CC(=O)CC(c1ccccc1)c1c(O)c2ccccc2oc1=O (configuration not stated)"
  normalized growth: 1
- compound: "CCOC(=O)C1C(C=C(C)C)C1(C)C (configuration not stated)"
  normalized growth: 1
- compound: "CC1(C)O[C@@H]2CC3C4C[C@H](F)C5=CC(=O)C=CC5(C)C4C(O)CC3(C)[C@]2(C(=O)CO)O1 (some centres not stated)"
  normalized growth: 1.01
- compound: "O=c1c(-c2ccccc2)coc2cc(O)cc(O)c12"
  normalized growth: 0.924

###

Item-by-item account of normalized growth
- testMethodNotes: chemical genetic growth profiling, strain panel (AID 1159580)
- conditionSet: S. cerevisiae deletion strains, growth OD, locus YKL203C, strain TOR2, stronger effect = lower value
Among all 5,500 compounds or so, about 2,000 (36%) were called active. Roughly 18% stayed inconclusive and do not appear here. The list shows a part of the results.

- compound: "CC(C)(C)c1csc(NC(=O)Nc2ccc(Cl)cc2)n1"
  normalized growth: 0.565
- compound: "C/C(=N/Nc1nc(C(C)(C)C)cs1)c1ccc(Cl)c(Cl)c1"
  normalized growth: 0.969
- compound: "COc1ccc(C2CC(c3ccccc3)=Nc3ccccc3S2)cc1OC (stereo not given)"
  normalized growth: 0.965
- compound: "Cc1nc(-c2ccc(C(F)(F)F)cn2)[nH]c(=O)c1Cl"
  normalized growth: 0.886
- compound: "CN(C(=O)N(C)c1ccc(Cl)cc1C(=O)c1ccccc1Cl)c1ccc(Cl)cc1C(=O)c1ccccc1Cl"
  normalized growth: 0.457

###

- testMethodNotes: chemical genetic growth profiling, strain panel (AID 1159580)
- conditionSet: S. cerevisiae deletion strains, growth OD, locus YLR384C, strain iki3, stronger effect = lower value
About 2,000 (36%) of roughly 5,500 compounds were called active. Roughly 18% stayed inconclusive and do not appear here. This is one part of the list.
Item-by-item account of normalized growth
valueKind: normalized growth

- compound: "O=c1c2ccccc2[se]n1-c1ccccc1"
  endpointValue: 0.554
- compound: "S=c1ccss1"
  endpointValue: 0.996
- compound: "OC1C(O)C(O)C(O)C(O)C1O (centres undefined)"
  endpointValue: 0.998
- compound: "COc1ccc(-c2coc3cc(OC(C)=O)cc(OC(C)=O)c3c2=O)cc1"
  endpointValue: 0.968

###

Item-by-item account of normalized growth
- testMethodNotes: chemical genetic growth profiling, strain panel (AID 1159580);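 further: tested at 20 µM; growth read once vehicle control cultures reached saturation at 30 °C; 1 = growth at the plate median or of vehicle wells; lower values mean less growth of the strain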
- conditionSet: S. cerevisiae deletion strains, growth OD, locus YBR136W, strain MEC1, stronger effect = lower value
Screen size: about 5,500 compounds; about 2,000 (36%) were called active. About 18% were inconclusive and are not listed. The list shows a part of the results.
valueKind: normalized growth

- smilesInput: "CCn1nc(C)cc1-c1nnc(Sc2ncc([N+](=O)[O-])s2)n1C"
  valueKind: "normalized growth"
  endpointValue: 0.962
- smilesInput: "CC(C)(C)c1csc(NC(=O)Nc2ccc(Cl)cc2)n1"
  valueKind: "normalized growth"
  endpointValue: 0.976
- smilesInput: "O=C1Nc2ccccc2/C1=N/N=C\\c1cc(Br)cc(Br)c1O"
  valueKind: "normalized growth"
  endpointValue: 0.955
- smilesInput: "CN(C(=O)N(C)c1ccc(Cl)cc1C(=O)c1ccccc1Cl)c1ccc(Cl)cc1C(=O)c1ccccc1Cl"
  valueKind: "normalized growth"
  endpointValue: 0.832
- smilesInput: "CC(C)c1ccc(-c2cc(=O)c3ccccc3o2)cc1"
  valueKind: "normalized growth"
  endpointValue: 0.941
- smilesInput: "O=C1Nc2ccccc2/C1=N/N=C\\c1ccccc1Cl"
  valueKind: "normalized growth"
  endpointValue: 0.966

###

- testMethodNotes: chemical genetic growth profiling, strain panel (AID 1159580);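 further: tested at 20 µM; growth read once vehicle control cultures reached saturation at 30 °C; 1 = growth at the plate median or of vehicle wells; lower values mean less growth of the strain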
- conditionSet: S. cerevisiae deletion strains, growth OD, locus YAL040C, strain CLN3, stronger effect = lower value
Out of some 5,500 compounds screened, about 2,000 (36%) were called active. Inconclusive results (about 18%) are left out. This is one part of the list.

- compound: "CCCCC1C(=O)N(c2ccccc2)N(c2ccccc2)C1=O"
  normalized growth: 0.963
- compound: "Cn1c(=O)c2[nH]c(C3CCCC3)nc2n(C)c1=O"
  normalized growth: 0.977
- compound: "COC(=O)C1=C(C)NC(C)=C(C(=O)OCCN(C)Cc2ccccc2)C1c1cccc([N+](=O)[O-])c1 (stereo not drawn)"
  normalized growth: 1.02
- compound: "O=C(NCC1CCCCN1)c1cc(OCC(F)(F)F)ccc1OCC(F)(F)F (stereo not drawn)"
  normalized growth: 0.988
- compound: "CN1CCN(C2Cc3ccccc3Sc3ccc(Cl)cc32)CC1 (stereo not drawn)"
  normalized growth: 1
- compound: "CC(=O)/C(C)=N\\O"
  normalized growth: 0.972
- compound: "NCCc1ccc(O)cc1"
  normalized growth: 0.988
- compound: "C[C@@H]1C(=O)NC2=Nc3cccc(Cl)c3CN21"
  normalized growth: 1
- compound: "CSc1ccc2c(c1)C(N1CCN(C)CC1)Cc1ccccc1S2 (stereo not drawn)"
  normalized growth: 1
- compound: "C[N+]1(CCCCC[N+]2(C)CCCC2)CCCC1"
  normalized growth: 0.976
- compound: "CCCCOc1cc(CC2CNC(=O)N2)ccc1OC (stereo not drawn)"
  normalized growth: 1.08
- compound: "CN1CCN2c3ccccc3Cc3ccccc3C2C1 (stereo not drawn)"
  normalized growth: 1.01
- compound: "NCCc1ccc(O)c(O)c1"
  normalized growth: 0.983

###

- testMethodNotes: chemical genetic growth profiling, strain panel (AID 1159580);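 further: tested at 20 µM; growth read once vehicle control cultures reached saturation at 30 °C; 1 = growth at the plate median or of vehicle wells; lower values mean less growth of the strain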
- conditionSet: S. cerevisiae deletion strains, growth OD, locus YHR013C, strain ard1, stronger effect = lower value
About 2,000 (36%) of roughly 5,500 compounds were called active. About 18% were inconclusive and are not listed. The list shows a part of the results.
Item-by-item account of normalized growth
valueKind: normalized growth

- molecule: "CC1=C2C(=CO[C@H](C)[C@H]2C)C(=O)C(C(=O)O)=C1O"
  endpointValue: "0.94 (inactive)"
- molecule: "Nc1ccc(C(=O)Oc2ccccc2)c(O)c1"
  endpointValue: "0.907 (inactive)"
- molecule: "NS(=O)(=O)c1cc2c(cc1C(F)(F)F)NCNS2(=O)=O"
  endpointValue: "0.989 (inactive)"
- molecule: "Cc1cc2cc3c(C)cc(=O)oc3c(C)c2o1"
  endpointValue: "0.877 (inactive)"
- molecule: "C[C@@H]1CC[C@@]2(OC1)OC1C(O)C3C4CC[C@H]5C[C@H](O[C@@H]6O[C@H](CO)[C@H](O[C@@H]7O[C@H](CO)[C@@H](O)[C@H](O[C@@H]8OC[C@@H](O)[C@H](O)[C@H]8O)[C@H]7O[C@@H]7O[C@H](CO)[C@H](O)[C@H](O[C@@H]8O[C@H](CO)[C@@H](O)[C@H](O)[C@H]8O)[C@H]7O)[C@H](O)[C@H]6O)[C@H](O)C[C@]5(C)C4CC[C@]3(C)C1[C@@H]2C (stereo not given in full)"
  endpointValue: "1.03 (inactive)"
- molecule: "CC1=CCc2c(cc3oc(C)cc(=O)c3c2O)OC1"
  endpointValue: "0.924 (inactive)"
- molecule: "CC(=O)O[C@H]1C[C@H](O[C@H]2[C@@H](O)C[C@H](O[C@H]3[C@@H](O)C[C@H](O[C@H]4CC[C@@]5(C)C(CCC6C5C[C@@H](O)[C@]5(C)[C@@H](C7=CC(=O)OC7)CC[C@]65O)C4)O[C@@H]3C)O[C@@H]2C)O[C@H](C)[C@H]1O[C@@H]1O[C@H](CO)[C@@H](O)[C@H](O)[C@H]1O (stereo not given in full)"
  endpointValue: "0.969 (inactive)"
- molecule: "CC[N+]1(C)CCCC(OC(=O)C(O)(c2ccccc2)c2ccccc2)C1 (stereo not given)"
  endpointValue: "1.04 (inactive)"
- molecule: "CN(C)CC/C=C1/c2ccccc2COc2ccccc21"
  endpointValue: "0.983 (inactive)"
- molecule: "COc1cc([C@@H]2c3cc4c(cc3[C@H](OC(C)=O)[C@H]3COC(=O)[C@H]23)OCO4)cc(OC)c1OC"
  endpointValue: "0.988 (inactive)"
- molecule: "CC(C)(O)[C@@H]1CC[C@](C)([C@H]2[C@@H](O)C[C@@]3(C)C4C[C@H](O[C@@H]5O[C@H](CO)[C@@H](O)[C@H](O)[C@H]5O)C5C(C)(C)[C@@H](O[C@@H]6OC[C@@H](O)[C@H](O)[C@H]6O)CC[C@@]56C[C@@]46CC[C@]23C)O1 (stereo not given in full)"
  endpointValue: "0.976 (inactive)"
- molecule: "CN(C)CCC=C1c2ccccc2CCc2ccccc21"
  endpointValue: "0.875 (inactive)"
- molecule: "Nc1ccc(C(=O)O)c(O)c1"
  endpointValue: "0.961 (inactive)"
- molecule: "CC(=O)Nc1cccc(O)c1"
  endpointValue: "1.04 (inactive)"
- molecule: "CC1(C)O[C@@H]2CC3C4CCC5=CC(=O)C=C[C@]5(C)[C@@]4(F)[C@@H](O)C[C@]3(C)[C@]2(C(=O)CO)O1 (stereo not given in full)"
  endpointValue: "0.956 (inactive)"

Origin of the recorded values: PubChem BioAssay AID1159580
